target.under.test: recombinant D. alaskensis Cut C/D lysate (Oleidesulfovibrio alaskensis)
Sequence (Q30W70 whole entry): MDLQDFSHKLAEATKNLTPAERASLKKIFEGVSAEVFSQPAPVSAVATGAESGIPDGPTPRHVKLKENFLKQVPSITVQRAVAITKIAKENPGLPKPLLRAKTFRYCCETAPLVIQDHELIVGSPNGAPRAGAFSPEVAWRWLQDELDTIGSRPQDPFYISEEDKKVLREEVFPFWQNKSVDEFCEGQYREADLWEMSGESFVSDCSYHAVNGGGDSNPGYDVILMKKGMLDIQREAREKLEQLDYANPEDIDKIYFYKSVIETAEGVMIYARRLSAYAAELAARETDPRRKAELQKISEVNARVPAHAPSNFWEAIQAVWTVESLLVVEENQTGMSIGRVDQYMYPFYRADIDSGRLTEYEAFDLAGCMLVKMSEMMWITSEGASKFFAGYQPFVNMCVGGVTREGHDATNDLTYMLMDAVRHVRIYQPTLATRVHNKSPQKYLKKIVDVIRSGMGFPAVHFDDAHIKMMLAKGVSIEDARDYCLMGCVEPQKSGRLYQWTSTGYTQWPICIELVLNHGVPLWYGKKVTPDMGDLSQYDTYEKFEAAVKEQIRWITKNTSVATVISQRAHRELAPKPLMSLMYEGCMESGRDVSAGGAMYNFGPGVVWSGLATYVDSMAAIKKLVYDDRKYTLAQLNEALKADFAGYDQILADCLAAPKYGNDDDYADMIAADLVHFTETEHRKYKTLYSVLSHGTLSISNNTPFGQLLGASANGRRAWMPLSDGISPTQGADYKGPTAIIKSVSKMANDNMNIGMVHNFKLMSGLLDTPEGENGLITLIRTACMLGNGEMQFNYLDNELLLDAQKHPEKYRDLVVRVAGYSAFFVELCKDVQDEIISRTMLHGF
assay.notes: Inhibition of conversion of choline to TMA by recombinant D. alaskensis Cut C/D lysate (Example 5)
Provide the reported IC50 of each item.
Give bare numbers, in µM.

C[N+](C)(CCl)CCF    0.76

We next turn to a different compound, shown below.
What value of IC50 has been recorded for this entry: C[N+](C)(CI)CCF 0.15

* * *

target.under.test: recombinant P. mirabilis Cut C/D lysate (Proteus mirabilis)
Sequence (B4EYG1 1-1142): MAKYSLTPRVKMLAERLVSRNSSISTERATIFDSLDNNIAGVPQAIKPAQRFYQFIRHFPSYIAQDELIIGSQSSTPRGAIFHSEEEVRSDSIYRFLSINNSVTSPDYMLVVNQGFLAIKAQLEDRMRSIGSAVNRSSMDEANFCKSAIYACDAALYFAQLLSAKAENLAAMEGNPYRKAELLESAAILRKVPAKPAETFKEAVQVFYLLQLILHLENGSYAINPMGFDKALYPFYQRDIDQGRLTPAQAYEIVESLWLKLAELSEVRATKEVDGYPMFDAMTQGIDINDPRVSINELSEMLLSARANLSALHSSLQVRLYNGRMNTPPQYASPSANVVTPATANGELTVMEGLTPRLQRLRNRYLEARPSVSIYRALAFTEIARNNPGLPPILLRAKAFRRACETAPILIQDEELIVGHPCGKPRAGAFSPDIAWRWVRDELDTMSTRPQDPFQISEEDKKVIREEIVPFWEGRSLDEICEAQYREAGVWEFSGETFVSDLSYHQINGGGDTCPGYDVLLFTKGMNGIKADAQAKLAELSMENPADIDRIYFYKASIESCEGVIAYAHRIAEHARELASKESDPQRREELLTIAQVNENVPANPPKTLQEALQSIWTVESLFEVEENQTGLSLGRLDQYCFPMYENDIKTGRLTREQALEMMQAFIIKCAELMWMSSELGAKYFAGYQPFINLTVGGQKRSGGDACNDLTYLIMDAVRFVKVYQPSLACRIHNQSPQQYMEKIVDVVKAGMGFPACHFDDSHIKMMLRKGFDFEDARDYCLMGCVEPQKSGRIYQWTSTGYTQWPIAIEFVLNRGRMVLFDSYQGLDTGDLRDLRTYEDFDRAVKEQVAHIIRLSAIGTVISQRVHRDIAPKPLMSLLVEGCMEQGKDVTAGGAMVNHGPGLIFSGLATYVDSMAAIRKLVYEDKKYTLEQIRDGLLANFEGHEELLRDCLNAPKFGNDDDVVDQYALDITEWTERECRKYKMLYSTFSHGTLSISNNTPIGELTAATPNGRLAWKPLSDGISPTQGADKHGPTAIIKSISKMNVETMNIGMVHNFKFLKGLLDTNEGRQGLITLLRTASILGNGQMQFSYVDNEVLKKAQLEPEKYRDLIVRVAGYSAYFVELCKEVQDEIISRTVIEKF
Sequence (B4EYG0 1-316 partner): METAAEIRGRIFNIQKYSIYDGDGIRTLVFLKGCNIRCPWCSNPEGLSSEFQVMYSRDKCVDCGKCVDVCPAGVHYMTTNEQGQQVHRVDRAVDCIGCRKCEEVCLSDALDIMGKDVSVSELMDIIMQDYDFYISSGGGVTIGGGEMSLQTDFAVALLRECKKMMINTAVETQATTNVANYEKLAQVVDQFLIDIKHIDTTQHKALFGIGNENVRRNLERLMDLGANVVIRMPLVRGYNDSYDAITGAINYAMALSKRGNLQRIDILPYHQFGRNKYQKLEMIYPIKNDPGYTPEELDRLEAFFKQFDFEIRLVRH
assay.notes: Inhibition of conversion of choline to TMA by recombinant P. mirabilis Cut C/D lysate (Example 5)
Type: biochemical
measured.attribute: IC50 (nM)
Numbers only, in nM.

Below are some molecules; for each one, tell me its IC50.
1. C[N+](C)(CCl)CCF
2. C[N+](C)(CI)CCF

690
240
